Taken from ChEMBL document CHEMBL1121783.

experiment: Half-life in pH 7 phosphate buffer by using high-performance LC method
measured-attribute: half-life (h)
Kindly provide the numeric value in h only, without the unit symbol.

// query Find the recorded half-life belonging to CN(N=O)C(=O)NCCNC(=O)[C@H]1OC(n2cnc3c(O)ncnc32)[C@H](O)[C@@H]1O (stereo partly specified) and report it.
// result 127

---

test: Half-life in pH 7 phosphate buffer by using high-performance LC method
Reported half-life by item:
Kindly answer with a numeric value in h, unit omitted.

compound: O=NN(CCNC(=O)[C@H]1OC(n2cnc3c(O)ncnc32)[C@H](O)[C@@H]1O)C(=O)NC1CCCCC1 (some centres undefined)
recorded-value: 12

// query Which half-life value belongs to `O=NN(CCCl)C(=O)NC1CCCCC1` ?
// result 0.88

// query Form field: reported half-life of `CN(N=O)C(N)=O`
// result 0.12

// query Any idea what half-life was measured for Cc1cn(C2CC(O)C(C(=O)NCCNC(=O)N(C)N=O)O2)c(=O)[nH]c1=O (centres undefined) ?
// result 29
